Target: recombinant human-MT1 receptor (Homo sapiens)
Construct: expressed in transfected cells; host or cells: unnamed cell line stably overexpressing human MT1, co-expressing mitochondrial apoaequorin and Gα16
Sequence (P48039 whole entry): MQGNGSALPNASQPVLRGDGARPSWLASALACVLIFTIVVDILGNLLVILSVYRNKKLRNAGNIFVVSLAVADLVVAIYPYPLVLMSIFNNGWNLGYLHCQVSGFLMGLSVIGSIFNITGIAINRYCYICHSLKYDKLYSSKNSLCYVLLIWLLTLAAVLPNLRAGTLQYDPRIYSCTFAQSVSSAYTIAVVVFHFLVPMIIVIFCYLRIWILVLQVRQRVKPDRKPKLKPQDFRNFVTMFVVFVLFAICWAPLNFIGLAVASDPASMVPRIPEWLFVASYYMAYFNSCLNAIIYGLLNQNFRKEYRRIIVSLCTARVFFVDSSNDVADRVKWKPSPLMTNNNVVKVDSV
Experiment: In vitro MT1 screening, agonist activity (AequoScreen aequorin luminescence)
Type: cell-based
Settings: 100 nM compound; percentage of activity relative to the reference agonist at the EC100 concentration; read-out: Agonism percentages of MT1, 100 nM
Values of activation at 0.1 µM greater than or equal to 90% map to MET; values below map to NOT MET.

>>> assigned_category("O=C(NCCc1c[nH]c2cc(F)c3c(c12)CCO3)C(F)(F)F [Compound 18]")
"MET"
>>> assigned_category("CCC(=O)NCCc1c[nH]c2cc(F)c3c(c12)CC(C)O3 (stereo not shown) [Compound 23]")
"MET"
>>> assigned_category("CC1Cc2c(c(F)cc3[nH]cc(CCNC(=O)C(C)C)c23)O1 (stereo not shown) [Compound 26]")
"NOT MET"
>>> assigned_category("CC1Cc2c(c(F)cc3[nH]cc(C(C)CNC(=O)C(C)(C)C)c23)O1 (stereo not shown) [Compound 37]")
"NOT MET"
>>> assigned_category("CCC(=O)NCC[C@@H]1CCc2ccc3c(c21)CCO3 [Ramelteon, reference compound]")
"MET"
>>> assigned_category("CCCC(=O)NCC(C)c1c[nH]c2cc(F)c3c(c12)CC(C)O3 (stereo not shown) [Compound 19]")
"MET"
>>> assigned_category("CC1Cc2c(c(F)cc3[nH]cc(C(C)CNC(=O)C4CC4)c23)O1 (stereo not shown) [Compound 35]")
"MET"
>>> assigned_category("CC(=O)NCCc1c[nH]c2cc(F)c3c(c12)CC(C)O3 (stereo not shown) [Compound 22]")
"MET"
>>> assigned_category("CCCC(=O)NCCc1c[nH]c2cc(F)c3c(c12)CC(C)O3 (stereo not shown) [Compound 24]")
"MET"
>>> assigned_category("CC1Cc2c(c(F)cc3[nH]cc(C(C)CNC(=O)C(F)(F)F)c23)O1 (stereo not shown) [Compound 38]")
"MET"
>>> assigned_category("CC1Cc2c(c(F)cc3[nH]cc(CCNC(=O)C(C)F)c23)O1 (stereo not shown) [Compound 32]")
"MET"
>>> assigned_category("CC(C)C(=O)NCCc1c[nH]c2cc(F)c3c(c12)CCO3 [Compound 16]")
"NOT MET"
>>> assigned_category("COC(=O)NCCc1c[nH]c2cc(F)c3c(c12)CC(C)O3 (stereo not shown) [Compound 29]")
"NOT MET"
>>> assigned_category("CCOC(=O)NCCc1c[nH]c2cc(F)c3c(c12)CC(C)O3 (stereo not shown) [Compound 30]")
"NOT MET"
>>> assigned_category("CC1Cc2c(c(F)cc3[nH]cc(C(C)CNC(=O)C(C)C)c23)O1 (stereo not shown) [Compound 34]")
"MET"
>>> assigned_category("CC(=O)NCCc1c[nH]c2cc(F)c3c(c12)CCO3 [Compound 13]")
"MET"
>>> assigned_category("CCC(=O)NCC(C)c1c[nH]c2cc(F)c3c(c12)CC(C)O3 (stereo not shown) [Compound 20]")
"MET"
>>> assigned_category("CC1Cc2c(c(F)cc3[nH]cc(C(C)CNC(=O)C(C)F)c23)O1 (stereo not shown) [Compound 43]")
"MET"
>>> assigned_category("CCC(=O)NCCc1c[nH]c2cc(F)c3c(c12)CCO3 [Compound 14]")
"MET"
>>> assigned_category("O=C(NCCc1c[nH]c2cc(F)c3c(c12)CCO3)C1CC1 [Compound 17]")
"MET"
>>> assigned_category("COC(=O)NCC(C)c1c[nH]c2cc(F)c3c(c12)CC(C)O3 (stereo not shown) [Compound 40]")
"MET"
>>> assigned_category("CC1Cc2c(c(F)cc3[nH]cc(CCNC(=O)C(F)(F)F)c23)O1 (stereo not shown) [Compound 28]")
"MET"
>>> assigned_category("CCOC(=O)NCC(C)c1c[nH]c2cc(F)c3c(c12)CC(C)O3 (stereo not shown) [Compound 41]")
"NOT MET"
>>> assigned_category("CCCCC(=O)NCCc1c[nH]c2cc(F)c3c(c12)CC(C)O3 (stereo not shown) [Compound 25]")
"MET"
